Test system: RPMI-8226 leukemia
Experimental Details: NCI-60 one-dose screen, 48 h
Measurement Context: 10 µM unless noted
Compounds without any hit were thinned out: in the full panel of roughly 83,000, 20% have a hit. Calls of active or inactive are those of the source. Rule for the calls: active = growth percent below 10; inactive = the rest.
Can you answer with just one of these options? T (active), F (inactive)

Ask: What did this assay record as the result for "COc1ccc2c(c1)O/C(=C\c1cccc(OCC(=O)Nc3nc4ccccc4s3)c1)C2=O" ?
Result: F

Ask: Same for CCCCC1CCCCN1C(=O)OCC (stereo not given)
Result: F

Ask: Same for "c1ccc2c(c1)nc(CN1CCOCC1)n1cc(N3CCCC3)nc21"
Result: F

Ask: Same for "CCN(CCNc1ccc(C)c2sc3ccccc3c(=O)c12)CC(C)(C)O"
Result: F

Ask: Same for "COC(=O)[C@]12CC[C@@H](C)[C@H](C)[C@@H]1C1=CC[C@@H]3[C@@]4(C)C(C=O)=C[C@@](C)(CO)[C@@H]4[C@H](O)C[C@@]3(C)[C@]1(C)CC2"
Result: T

Ask: Same for "O=c1c2c3c(sc2nc(N/N=C/c2ccc(Br)cc2)n1Cc1ccccc1)CCCC3"
Result: F

Ask: Same for "N[C@@H](CCCCNCC(=O)O)C(=O)O"
Result: F

Ask: Same for "NC(=N\N=C/c1cccc([N+](=O)[O-])c1)/C(N)=N\N=C/c1cccc([N+](=O)[O-])c1"
Result: F

Ask: Same for "O=C(NCCCNc1cc(-c2cn(-c3ccccc3)nc2-c2cccc(O)c2)ccn1)c1ccccc1"
Result: T

Ask: Same for "COc1cccc(-c2nc3sccn3c2-c2ccnc(NCCNS(=O)(=O)c3cccc(F)c3)c2)c1"
Result: T

Ask: Same for CCN1C(=O)N(CC)C2C1NN=c1s/c(=C\c3cccs3)c(=O)n12 (stereo not given)
Result: F

Ask: Same for "COc1cc(/C=C/C(=O)c2c(C)nc3ccccc3c2C)ccc1OCCCN1CCN(C(=O)c2ccco2)CC1"
Result: F

Ask: Same for "CNC(=O)CCN1CCN(CC/C=C2\c3ccccc3Sc3ccc(Cl)cc32)CC1"
Result: F

Ask: Same for "CSc1n(Cc2ccc3ccccc3c2)c(C)c[n+]1Cc1ccc2ccccc2c1"
Result: T

Ask: Same for "COc1cccc(-c2nn(-c3ccccc3)cc2-c2ccnc(NCCNC(=O)Nc3cccc(C(F)(F)F)c3)c2)c1"
Result: F

Ask: Same for "Cc1ccc(C(=O)COc2cccc(/C=C3\Oc4ccccc4C3=O)c2)cc1"
Result: F

Ask: Same for "N/C(=N\c1nc2ccccc2s1)NC(=O)Nc1cccc(Cl)c1"
Result: F

Ask: Same for "Cc1ccccc1NC(=O)N/C(N)=N/c1nc(-c2cccc([N+](=O)[O-])c2)cs1"
Result: F

Ask: Same for "COc1cccc(-c2nn(-c3ccccc3)cc2-c2ccnc(NCCCNC(=O)c3cccc(C(F)(F)F)c3)c2)c1"
Result: T

Ask: Same for "COc1ccc2c(c1)[nH]c(=O)c1c3cccnc3cn21"
Result: F

Ask: Same for "CCCCn1c(=O)c2c(nc(NCCc3ccc(O)c(O)c3)n2CCC)n(CCCC)c1=O"
Result: F

Ask: Same for COc1ccc(C2CC(c3cccc(OC)c3)=NN2C(=O)c2cc(OC)c(OC)c(OC)c2)cc1 (stereo not given)
Result: F

Ask: Same for "N#C/C(=C\c1ccc2c(c1)OCO2)n1nnc2cc(F)c(F)cc21"
Result: F

Ask: Same for "COC(=O)c1c2c(c(C)[n+]([O-])c1C)C(=O)C(NCc1ccc(F)cc1)=CC2=O"
Result: F

Ask: Same for O=C(NC(CSSCC(NC(=O)c1ccccc1)C(=O)O)C(=O)O)c1ccccc1 (stereo not given)
Result: F

Ask: Same for "COc1ccc2c(c1)C(=O)/C(=C/c1cccc(OCC(=O)Nc3nc(C)c(C)s3)c1)O2"
Result: T

Ask: Same for "S=C(c1ccc2c(c1)OCO2)N1CCN(c2ccccc2Cl)CC1"
Result: F

Ask: Same for "N#C/C(=C\c1ccc(Br)cc1)n1nnc2cc(F)c(F)cc21"
Result: T

Ask: Same for "O=C(Nc1cccc(Cl)c1)c1cc(N=Nc2ccc([N+](=O)[O-])cc2Cl)ccc1O"
Result: T

Ask: Same for "Cc1cc(=O)oc2c1ccc1oc(C#N)c(C)c12"
Result: F

Ask: Same for COc1cc(C2CC(=O)Nc3c2c(C)nn3-c2nc3ccccc3[nH]2)c(OC)c(OC)c1OC (stereo not given)
Result: F

Ask: Same for "CCCCCCN(CCCCCC)c1ccc(/C=C2/SC(=O)N(c3nc(N4CCCC4)nc(N4CCCC4)n3)C2=O)c(C)c1"
Result: F

Ask: Same for "C[n+]1cc2cc(C(N)=O)[nH]c3c(=N)c(Cl)c(N)c1c23"
Result: F

Ask: Same for CCOP(=O)(OCC)C1CP(=O)(c2ccccc2)CC(C)=C1Cl (stereo not given)
Result: F

Ask: Same for COc1cc(C2CC(c3ccc(Nc4ccnc5cc(Cl)ccc45)cc3)=NN2C=O)cc(OC)c1OC (stereo not given)
Result: F

Ask: Same for "COc1cc(/C=N/NC(=O)Cn2c(C(C)C)nc3ccccc32)ccc1O"
Result: F

Ask: Same for COCN1CCC2N(COC)CCC3N(COC)CCC1N23 (stereo not given)
Result: F

Ask: Same for "O=C(/C=C/c1c(Cl)nc2sccn12)c1ccc(F)c(F)c1"
Result: F

Ask: Same for "CC(C)CCC[C@@H](C)[C@H]1CC[C@H]2[C@@H](Nc3ccc(O)cc3)CCC[C@]12C"
Result: F

Ask: Same for "COc1cc2ncn3c(=O)c4c5c(sc4nc3c2cc1OC)CCCC5"
Result: F
